- test-target: His6-REV7_(R124A), recombinant (human, UniProt Q9UI95 1-211, R124A)
- Sequence (Q9UI95 whole entry R124A): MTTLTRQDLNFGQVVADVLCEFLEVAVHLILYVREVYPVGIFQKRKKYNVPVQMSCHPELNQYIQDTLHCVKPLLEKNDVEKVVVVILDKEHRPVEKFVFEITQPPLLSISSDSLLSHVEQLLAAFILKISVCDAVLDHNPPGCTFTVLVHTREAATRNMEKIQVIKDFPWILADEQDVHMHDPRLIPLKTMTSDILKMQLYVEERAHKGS
- protocol-notes: ITC
readout-type: Kd (nM)
Numeric only. Scale: nM

Name the recorded Kd for RINN1_(28–83), recombinant (domain or fragment, human, UniProt Q6ZNX1 28-83, looked up) QDFPTRPLSRFIPWFPYDGSKLPLRPKRSPPVISEEAAEDVKQYLTISEHDAKSHS .
15.8
